# tested_on: human CXCR4 (human)
# assay_method_text: competition vs [125I]-CXCL12; potency relative to monovalent 238D2
measured_endpoint: Rel. potency

Some binders with known Rel. potency results, for comparison:
binder: 238D2-15GS-238D4 (VHH) EVQLVESGGGLVQTGGSLRLSCAASGFTFSSYAMSWVRQAPGKGLEWVSGIKSSGDSTRYAGSVKGRFTISRDNAKNMLYLQMYSLKPEDTAVYYCAKSRVSRTGLYTYDNRGQGTQVTVSSGGGGSGGGGSGGGGSEVQLMESGGGLVQAGGSLRLSCAASGRTFNNYAMGWFRRAPGKEREFVAAITRSGVRSGVSAIYGDSVKDRFTISRDNAKNTLYLQMNSLKPEDTAVYTCAASAIGSGALRRFEYDYSGQGTQVTVSS
measured_endpoint: Rel. potency
result_value: 28 fold
//
binder: 238D2-20GS-238D4 (VHH) EVQLVESGGGLVQTGGSLRLSCAASGFTFSSYAMSWVRQAPGKGLEWVSGIKSSGDSTRYAGSVKGRFTISRDNAKNMLYLQMYSLKPEDTAVYYCAKSRVSRTGLYTYDNRGQGTQVTVSSGGGGSGGGGSGGGGSGGGGSEVQLMESGGGLVQAGGSLRLSCAASGRTFNNYAMGWFRRAPGKEREFVAAITRSGVRSGVSAIYGDSVKDRFTISRDNAKNTLYLQMNSLKPEDTAVYTCAASAIGSGALRRFEYDYSGQGTQVTVSS
measured_endpoint: Rel. potency
result_value: 27 fold

Now consider the entry below.
Inquiry: Find the recorded Rel. potency belonging to 238D2-20GS-238B10 (VHH) EVQLVESGGGLVQTGGSLRLSCAASGFTFSSYAMSWVRQAPGKGLEWVSGIKSSGDSTRYAGSVKGRFTISRDNAKNMLYLQMYSLKPEDTAVYYCAKSRVSRTGLYTYDNRGQGTQVTVSSGGGGSGGGGSGGGGSGGGGSEVQLVESGGGFVQAGGSLRLSCETSGRPLLGYTIAWFRQVPGKEREFVAYHRWSDGANLYADSVKGRFTISGHNAKNTVSLQMNSLKPEDTAVYYCAAARMTTSNDKEYLYWGQGTQVTVSS and report it.
Reply text: < 0.1 fold

Reference source: patent US20110318347A1
